- Test system: 362531-283-R-J2-PDC complex spheroid viability
- PROCEDURE SUMMARY: Anticancer human tumor 362531-283-R-J2-PDC patient-derived colon adenocarcinoma cell line growth inhibition [RAS]
- ASSAY CONTEXT: second compound 0.1 µM; first compound 0.0949 µM; active compounds read low

MOLECULE	viability, T/C [%]
CCc1c2c(nc3ccc(O)cc13)-c1cc3c(c(=O)n1C2)COC(=O)[C@]3(O)CC + C=CC(=O)N1CCN(c2nc(OCC3CCCN3C)nc3c(F)c(-c4nc(N)cc(C)c4C(F)(F)F)c(Cl)cc23)C(C)C1	33
CC1(C)CCC(Nc2ncc(C(F)(F)F)c(-c3c[nH]c4c(P(C)(C)=O)c(C#N)ccc34)n2)CN1 (centres undefined) + C=CC(=O)N1CCN(c2nc(OCC3CCCN3C)nc3c(F)c(-c4nc(N)cc(C)c4C(F)(F)F)c(Cl)cc23)C(C)C1	104
CCc1c2c(nc3ccc(O)cc13)-c1cc3c(c(=O)n1C2)COC(=O)[C@]3(O)CC + C#Cc1c(F)ccc2cc(O)cc(-c3ncc4c(N5CC6CCC(C5)N6)nc(OCC56CCCN5CC(F)C6)nc4c3F)c12	25.3
CC1(C)CCC(Nc2ncc(C(F)(F)F)c(-c3c[nH]c4c(P(C)(C)=O)c(C#N)ccc34)n2)CN1 (centres undefined) + C#Cc1c(F)ccc2cc(O)cc(-c3ncc4c(N5CC6CCC(C5)N6)nc(OCC56CCCN5CC(F)C6)nc4c3F)c12	101

----------
- Tested on: 362531-283-R-J2-PDC complex spheroid viability
- PROCEDURE SUMMARY: Anticancer human tumor 362531-283-R-J2-PDC cell line growth inhibition [RAS]
- ASSAY CONTEXT: second compound 0.003 µM; first compound 1 µM; active compounds read low
METRIC: viability, T/C (%)

MOLECULE	OBSERVED
Nc1ccn(C2OC(CO)C(O)C2(F)F)c(=O)n1 (centres undefined) + CCn1c(-c2cc(N3CCN(C)CC3)cnc2C(C)OC)c2c3cc(ccc31)-c1csc(n1)CC(NC(=O)C1CC1C)C(=O)N1CCCC(N1)C(=O)OCC(C)(C)C2	29.3
NC1c2ccccc2OC12CCN(c1cnc3c(N4CCCc5ncccc54)n[nH]c3n1)CC2 (centres undefined) + CCn1c(-c2cc(N3CCN(C)CC3)cnc2C(C)OC)c2c3cc(ccc31)-c1csc(n1)CC(NC(=O)C1CC1C)C(=O)N1CCCC(N1)C(=O)OCC(C)(C)C2	50.8
CC(Nc1ccc2c(c1)OCCn1cc(N3C(=O)OCC3C(F)F)nc1-2)C(N)=O (centres undefined) + CCn1c(-c2cc(N3CCN(C)CC3)cnc2C(C)OC)c2c3cc(ccc31)-c1csc(n1)CC(NC(=O)C1CC1C)C(=O)N1CCCC(N1)C(=O)OCC(C)(C)C2	59.5
CC(=O)OC12COC1CC(O)C1(C)C(=O)C(O)C3=C(C)C(OC(=O)C(O)C(NC(=O)OC(C)(C)C)c4ccccc4)CC(O)(C(OC(=O)c4ccccc4)C21)C3(C)C (centres undefined) + CCn1c(-c2cccnc2C(C)OC)c2c3cc(ccc31)N1CCOC(CC(NC(=O)C(C(C)C)N(C)C(=O)C3(F)CCN(C(=O)C#CC(C)(C)N(C)C)CC3)C(=O)N3CCCC(N3)C(=O)OCC(C)(C)C2)C1	16.6

----------
- System: 362531-283-R-J2-PDC complex spheroid viability
- PROCEDURE SUMMARY: Anticancer human tumor 362531-283-R-J2-PDC cell line growth inhibition [RAS]; active = viability on the fitted dose curve at most 10% of control; inactive = the rest;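 note: spheroids exposed to the agents for 7 days before readout; luminescence viability as percent of DMSO vehicle control wells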
- ASSAY CONTEXT: second compound 0.0949 µM; first compound 10 µM
Outcomes: active, inactive

COMPOUND	ASSIGNED CLASS
CC(C)NCC(C(=O)N1CCN(c2ncnc3c2C(C)CC3O)CC1)c1ccc(Cl)cc1 (centres undefined) + CCn1c(-c2cc(N3CCN(C)CC3)cnc2C(C)OC)c2c3cc(ccc31)-c1csc(n1)CC(NC(=O)C1CC1C)C(=O)N1CCCC(N1)C(=O)OCC(C)(C)C2	inactive
CCC(CC)c1cc(NC2CCC(N)C2)n2nccc2n1 (centres undefined) + CCn1c(-c2cc(N3CCN(C)CC3)cnc2C(C)OC)c2c3cc(ccc31)-c1csc(n1)CC(NC(=O)C1CC1C)C(=O)N1CCCC(N1)C(=O)OCC(C)(C)C2	active
CC(Nc1ccc2c(c1)OCCn1cc(N3C(=O)OCC3C(F)F)nc1-2)C(N)=O (centres undefined) + CCn1c(-c2cccnc2C(C)OC)c2c3cc(ccc31)N1CCOC(CC(NC(=O)C(C(C)C)N(C)C(=O)C3(F)CCN(C(=O)C#CC(C)(C)N(C)C)CC3)C(=O)N3CCCC(N3)C(=O)OCC(C)(C)C2)C1	inactive
CC(Nc1ccc2c(c1)OCCn1cc(N3C(=O)OCC3C(F)F)nc1-2)C(N)=O (centres undefined) + CCn1c(-c2cc(N3CCN(C)CC3)cnc2C(C)OC)c2c3cc(ccc31)-c1csc(n1)CC(NC(=O)C1CC1C)C(=O)N1CCCC(N1)C(=O)OCC(C)(C)C2	inactive

----------
Measured viability, T/C, listed per entry.
- Tested on: 362531-283-R-J2-PDC complex spheroid viability
- PROCEDURE SUMMARY: Anticancer human tumor 362531-283-R-J2-PDC cell line growth inhibition [RAS];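 note: spheroids exposed to the agents for 7 days before readout; luminescence viability as percent of DMSO vehicle control wells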
- ASSAY CONTEXT: compound 0.03 µM; active compounds read low

MOLECULE	viability, T/C
CCn1c(-c2cc(N3CCN(C)CC3)cnc2C(C)OC)c2c3cc(ccc31)-c1csc(n1)CC(NC(=O)C1CC1C)C(=O)N1CCCC(N1)C(=O)OCC(C)(C)C2 (centres undefined)	99.5% [middle of 8 runs]
CCc1c2c(nc3ccc(O)cc13)-c1cc3c(c(=O)n1C2)COC(=O)[C@]3(O)CC	61.8% [middle of 4 runs]
CC1(C)CCC(Nc2ncc(C(F)(F)F)c(-c3c[nH]c4c(P(C)(C)=O)c(C#N)ccc34)n2)CN1 (centres undefined)	101% [middle of 4 runs]
CCn1c(-c2cccnc2C(C)OC)c2c3cc(ccc31)N1CCOC(CC(NC(=O)C(C(C)C)N(C)C(=O)C3(F)CCN(C(=O)C#CC(C)(C)N(C)C)CC3)C(=O)N3CCCC(N3)C(=O)OCC(C)(C)C2)C1 (centres undefined)	103% [middle of 8 runs]

----------
- Test system: 362531-283-R-J2-PDC complex spheroid viability
- PROCEDURE SUMMARY: Anticancer human tumor 362531-283-R-J2-PDC cell line growth inhibition [RAS];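 note: spheroids exposed to the agents for 7 days before readout; luminescence viability as percent of DMSO vehicle control wells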
- ASSAY CONTEXT: second compound 0.00316 µM; first compound 0.1 µM; active compounds read low
- Source text: RAS pathway inhibitors in Combinations in Complex Spheroids A high-throughput screen of multi-cell type tumor spheroids was designed to identify active combinations of RAS pathway inhibitors and targeted small molecules. Complex spheroids include a stromal component modeled by human endothelial cells (HUVEC) and fibroblasts modeled by human mesenchymal stem cells (MSCs). […] Compounds. […] If the clinical Cmax for an agent had not been determined, the highest concentration tested was 10 microM. […]
Measured viability, T/C, listed per entry.

COMPOUND	SYSTEM TESTED	viability, T/C [%]
Cc1nc(N2CCC3(CC2)COC(C)C3N)c(CO)nc1Sc1ccnc(N)c1Cl (stereo not drawn) + C=CC(=O)N1CCN(c2nc(OCC3CCCN3C)nc3c(F)c(-c4nc(N)cc(C)c4C(F)(F)F)c(Cl)cc23)C(C)C1	362531-283-R-J2-PDC complex spheroid viability	102
CC1(O)CCCC1n1c(=O)c(C(F)F)cc2cnc(NC3CCN(S(C)(=O)=O)CC3)nc21 (stereo not drawn) + C=CC(=O)N1CCN(c2nc(OCC3CCCN3C)nc3c(F)c(-c4nc(N)cc(C)c4C(F)(F)F)c(Cl)cc23)C(C)C1	362531-283-R-J2-PDC complex spheroid viability	98
C[C@@H](NC(=O)c1ncnc(N)c1Cl)c1ncc(C(=O)Nc2cc(C(F)(F)F)c(Cl)cn2)s1 + C=CC(=O)N1CCN(c2nc(OCC3CCCN3C)nc3c(F)c(-c4nc(N)cc(C)c4C(F)(F)F)c(Cl)cc23)C(C)C1	362531-283-R-J2-PDC complex spheroid viability	109

----------
- Tested on: 362531-283-R-J2-PDC complex spheroid viability
- PROCEDURE SUMMARY: Anticancer human tumor 362531-283-R-J2-PDC cell line growth inhibition [RAS];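 note: spheroids exposed to the agents for 7 days before readout; luminescence viability as percent of DMSO vehicle control wells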
- ASSAY CONTEXT: second compound 3.16 µM; first compound 10 µM; active compounds read low
Measured viability, T/C, listed per entry.
METRIC: viability, T/C

MOLECULE	SYSTEM TESTED	METRIC	OBSERVED
CC1(O)CCCC1n1c(=O)c(C(F)F)cc2cnc(NC3CCN(S(C)(=O)=O)CC3)nc21 (stereo not drawn) + C#Cc1c(F)ccc2cc(O)cc(-c3ncc4c(N5CC6CCC(C5)N6)nc(OCC56CCCN5CC(F)C6)nc4c3F)c12	362531-283-R-J2-PDC complex spheroid viability	viability, T/C	7.49%
CC(=O)OC12COC1CC(O)C1(C)C(=O)C(O)C3=C(C)C(OC(=O)C(O)C(NC(=O)OC(C)(C)C)c4ccccc4)CC(O)(C(OC(=O)c4ccccc4)C21)C3(C)C (stereo not drawn) + C#Cc1c(F)ccc2cc(O)cc(-c3ncc4c(N5CC6CCC(C5)N6)nc(OCC56CCCN5CC(F)C6)nc4c3F)c12	362531-283-R-J2-PDC complex spheroid viability	viability, T/C	13.5%
CC(C)NCC(C(=O)N1CCN(c2ncnc3c2C(C)CC3O)CC1)c1ccc(Cl)cc1 (stereo not drawn) + C#Cc1c(F)ccc2cc(O)cc(-c3ncc4c(N5CC6CCC(C5)N6)nc(OCC56CCCN5CC(F)C6)nc4c3F)c12	362531-283-R-J2-PDC complex spheroid viability	viability, T/C	53.2%
